- assayed-system: VEGFR-2 (Homo sapiens, UniProt P35968)
- Construct: in vitro investigation against VEGFR-2 in HCT-116 cells; endogenous in cells
- Sequence (P35968 20-1356): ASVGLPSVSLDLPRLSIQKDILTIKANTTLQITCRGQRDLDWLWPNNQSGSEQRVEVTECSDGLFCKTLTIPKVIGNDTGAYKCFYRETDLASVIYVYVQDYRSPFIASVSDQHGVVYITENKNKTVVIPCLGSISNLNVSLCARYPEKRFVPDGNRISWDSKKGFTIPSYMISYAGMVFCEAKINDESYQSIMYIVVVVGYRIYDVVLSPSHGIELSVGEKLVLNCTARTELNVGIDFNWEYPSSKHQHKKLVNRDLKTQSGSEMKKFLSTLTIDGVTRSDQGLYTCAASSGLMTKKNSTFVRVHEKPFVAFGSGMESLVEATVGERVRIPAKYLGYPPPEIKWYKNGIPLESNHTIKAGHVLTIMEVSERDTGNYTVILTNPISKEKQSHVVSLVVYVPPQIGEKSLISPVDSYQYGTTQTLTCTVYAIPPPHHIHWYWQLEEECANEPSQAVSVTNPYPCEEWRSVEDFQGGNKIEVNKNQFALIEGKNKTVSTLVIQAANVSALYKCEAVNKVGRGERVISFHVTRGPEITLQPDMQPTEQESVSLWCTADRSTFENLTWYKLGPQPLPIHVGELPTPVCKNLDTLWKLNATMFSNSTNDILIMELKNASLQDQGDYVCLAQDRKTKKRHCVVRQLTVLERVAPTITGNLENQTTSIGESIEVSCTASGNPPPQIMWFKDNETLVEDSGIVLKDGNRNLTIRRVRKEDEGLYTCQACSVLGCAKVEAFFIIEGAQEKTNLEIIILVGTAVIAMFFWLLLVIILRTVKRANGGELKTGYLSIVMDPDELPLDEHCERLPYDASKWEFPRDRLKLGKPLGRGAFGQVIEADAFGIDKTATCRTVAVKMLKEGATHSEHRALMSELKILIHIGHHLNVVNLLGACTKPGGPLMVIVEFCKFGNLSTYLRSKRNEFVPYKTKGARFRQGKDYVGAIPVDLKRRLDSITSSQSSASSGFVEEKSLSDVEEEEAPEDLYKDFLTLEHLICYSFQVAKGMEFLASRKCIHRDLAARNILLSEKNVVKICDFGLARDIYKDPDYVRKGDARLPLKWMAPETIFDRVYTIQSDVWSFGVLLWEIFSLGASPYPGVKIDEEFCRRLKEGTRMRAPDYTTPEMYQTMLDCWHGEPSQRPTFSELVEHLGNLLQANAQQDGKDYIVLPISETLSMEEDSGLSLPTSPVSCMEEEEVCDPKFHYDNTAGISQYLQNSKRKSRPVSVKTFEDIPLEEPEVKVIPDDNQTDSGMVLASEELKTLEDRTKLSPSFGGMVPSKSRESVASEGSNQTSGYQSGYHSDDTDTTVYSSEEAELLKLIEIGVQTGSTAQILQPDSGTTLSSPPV
- assay-info: Assessment of VEGFR-2 inhibition in HCT-116 cells
- experimental-conditions: HCT-116 cells treated at concentrations equal to the cytotoxic ones; read-out: VEGFR-2 protein concentration (called VEGFR-2 inhibitory IC50 in text)
# pIC50 annotations
Quick note: pIC50 means taking -log10 of the concentration in moles per liter.

Study these solved cases before continuing.
* CC(=NNC(=O)c1cccnc1)c1ccc(NC(=O)c2cccnc2)cc1 | 7.66
* CC(=NNC(=O)c1ccccc1)c1ccc(NC(=O)c2cccnc2)cc1 | 7.10
* CC(=NNc1ccccc1)c1ccc(NC(=O)c2cccnc2)cc1 | 7.64

Please examine the following record next.
Challenge: Find the measured pIC50: item `CC(=NO)c1ccc(NC(=O)c2cccnc2)cc1` , target or system VEGFR-2 (Homo sapiens, UniProt P35968).
Response given: 7.81

The reported measurements were obtained from paper PMC9116259.
